Data credit: the supplement of paper PMC10567573

- assaySummary: protein stability index of a GFP-peptide fusion (GPS, HEK-293T) (PSI 1-6); higher = more stable;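 further: 24-mer peptide tiles fused after GFP, lentivirally expressed, FACS-sorted into six equal bins by GFP/DsRed ratio, decoded by Illumina sequencing, PSI is the read-weighted mean bin number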
- experimentalParameters: treatment: MLN4924 1 uM, 8 h; c terminus: a fixed tail appended
valueType: protein stability index

Below: 3 sequences and their reported protein stability index.
IRVVGRGAFGIVHLCLRKADQKLV [NEK8]; 2.74
VYSCAFSPDSSMLCSVGASKAVFL [WSB1]; 2.86
PAMRNSPTFKSFEERVETTVTSLK [TPD52L1]; 4.42

Which protein stability index reading was recorded for the sequence PVDGARYRWQGRRWEPSGKAEPRL [TBX6] ? 3.86

Which protein stability index reading was recorded for the sequence ATEQAATQESTFQELCEGLLEESD [NOP53] ? 5.58

Which protein stability index reading was recorded for the sequence WRWTGFNFGFDLLVTYTNRYIIFK [GMCL1] ? 3.02

Which protein stability index reading was recorded for the sequence KTSAALSTVGSAISRKLGDMRNSA [TPD52L2] ? 3.7

Which protein stability index reading was recorded for the sequence VCIVQKNDTKKMYAMKYMNKQKCV [STK32A] ? 2.5

Which protein stability index reading was recorded for the sequence HVGELIIWDALDWTMQAYERNFWD [WDR41] ? 2.25

* * *

- assaySummary: protein stability index of a GFP-peptide fusion (GPS, HEK-293T) (PSI 1-6); higher = more stable
- experimentalParameters: treatment: DMSO; c terminus: a fixed tail appended
Measured protein stability index accompanies every entry in the list below.
Respond with the number and no other words.

Below: 2 sequences and their reported protein stability index.
LRALREKLFAHSSDLLSEFKKHDA [PPEF2]; 2.1
IRVVGRGAFGIVHLCLRKADQKLV [NEK8]; 3.02

Which protein stability index reading was recorded for the sequence EQRADPNAKAHCGATALHFAAEAG [FEM1B] ? 4.03

Which protein stability index reading was recorded for the sequence YYTTPIYRFRMKCHLCVNYIEMQT [YJU2B] ? 2.73

Which protein stability index reading was recorded for the sequence SQGLAREQHAGTSEGLHLAGTAGH [FBF1] ? 4.76

Which protein stability index reading was recorded for the sequence KIKEKYIDQEELNKTKPIWTRNPD [HSP90AB1] ? 3.71

Which protein stability index reading was recorded for the sequence NEQVLTTEHEKKQKLETDAMFRLE [YJU2B] ? 5.43

Which protein stability index reading was recorded for the sequence AILEMKWKVRAEKEACQREKELPA [ZBED2] ? 3.47

Which protein stability index reading was recorded for the sequence KMAHVIAACLYLVCRTEGTPHMLL [BRF1] ? 3.26

Which protein stability index reading was recorded for the sequence FYGETVADYFATFVQREEQLQFLI [CDS1] ? 2.71

Which protein stability index reading was recorded for the sequence ISFTLYLIGFCMFVLSLVKKHYRL [CDS2] ? 2.29

Which protein stability index reading was recorded for the sequence GRVSKQASQPVKKQQENATSCSLE [WDR41] ? 5.22

Which protein stability index reading was recorded for the sequence NFSIVPYEKKFDTFIPLEPLPQIP [SPATS1] ? 3.04

Which protein stability index reading was recorded for the sequence ARGTPSPKRMPSGRGGRDRFTAES [FSD1] ? 4.43

Which protein stability index reading was recorded for the sequence KRRRSVTPPEEQQEAEEPKARVLR [CDC25B] ? 5.32

Which protein stability index reading was recorded for the sequence KTSAALSTVGSAISRKLGDMRNSA [TPD52L2] ? 3.64

Which protein stability index reading was recorded for the sequence CRLRCHPPRGPLAKHRLVPPAQGR [TRIM9] ? 2.84

Which protein stability index reading was recorded for the sequence CDYSQYFKTIEELRDKIMATTIDN [KRT15] ? 3.28

Which protein stability index reading was recorded for the sequence VCIVQKNDTKKMYAMKYMNKQKCV [STK32A] ? 2.21

Which protein stability index reading was recorded for the sequence EEDLVLTCEDDEDEELGGSSRVPV [ZBTB22] ? 5.67

* * *

- assaySummary: protein stability index of a GFP-peptide fusion (GPS, HEK-293T) (PSI 1-6); higher = more stable
- experimentalParameters: treatment: MLN4924 1 uM, 8 h; c terminus: a fixed tail appended
protein stability index of 3 or higher: 1.0. Under 3: 0.0.

Example cases with answers are listed next.
PASSRNRSPSGSLRSARGSRGGTR [RBMY1A1]; 1.0
IIKTEKVDLELFPSPDMECADVPL [ETS1]; 1.0
SEKSQREDEEEEEGENYQKGERGE [CHGB]; 1.0
VFLHLLLLFKLVAPVTFRHHRYDD [CPN1]; 1.0

Assess whether reported protein stability index for CSWKGATKQRIQDQKVPYIFRDNQ [CHIT1] sits at 3 or higher. 1.0

Assess whether reported protein stability index for MTMQFISHRFPEDHDPTIEDAYKI [RIT1] sits at 3 or higher. 1.0

Assess whether reported protein stability index for IVVGRLKVALEPQLWELGKVLRKA [LPCAT4] sits at 3 or higher. 0.0

Assess whether reported protein stability index for SIQSLTLEWNSLGTWDDAFATFCG [LRRC45] sits at 3 or higher. 0.0

Assess whether reported protein stability index for PTTSHRLSRHDKAVQRFCLIGSLS [NETO1] sits at 3 or higher. 0.0

Assess whether reported protein stability index for MDSFKVVLEGPAPWGFRLQGGKDF [PDLIM7] sits at 3 or higher. 0.0

Assess whether reported protein stability index for LSQLSSHDPLWRRHCKKYWLISEE [FBXO3] sits at 3 or higher. 0.0

Assess whether reported protein stability index for FLVDMFNDEIEEVRLQSIHTMRKI [INTS4] sits at 3 or higher. 0.0

Assess whether reported protein stability index for EIFQKPFQTLMFLVRDWSFPYEYS [ATL3] sits at 3 or higher. 1.0

Assess whether reported protein stability index for QLESLGLLAPGEQSLPCTERKPAA [KISS1] sits at 3 or higher. 1.0

Assess whether reported protein stability index for ALVYLPGVIAAIVQLHNGTKYKKF [STEAP1] sits at 3 or higher. 0.0

Assess whether reported protein stability index for GERETRTPEELTILGETQEEEDEI [CLCN6] sits at 3 or higher. 1.0

Assess whether reported protein stability index for KLERLKQQNEDLRRMAESLRIPEG [FUT8] sits at 3 or higher. 1.0

Assess whether reported protein stability index for LLDQIREGAQLKKVEQNSRPVSCS [WASL] sits at 3 or higher. 1.0

Assess whether reported protein stability index for WLLLLTRGLVGVGEASYSTIAPTL [SPNS1] sits at 3 or higher. 0.0

Assess whether reported protein stability index for EAEKLERQLALPATEQAATQESTF [NOP53] sits at 3 or higher. 1.0

Assess whether reported protein stability index for LTRAGMSYYNSPGLHVQHMGTSHG [CCDC6] sits at 3 or higher. 0.0

Assess whether reported protein stability index for SASSSTTCCESTQRSVSDVASGST [IRX6] sits at 3 or higher. 1.0

Assess whether reported protein stability index for EMSKDALPEKACQLDSRYWRITNA [FBXO3] sits at 3 or higher. 1.0

* * *

Measured protein stability index accompanies every entry in the list below.
- assaySummary: protein stability index of a GFP-peptide fusion (GPS, HEK-293T) (PSI 1-6); higher = more stable
- experimentalParameters: treatment: MLN4924 1 uM, 8 h; c terminus: a fixed tail appended

SQSHCYRTCFSPASDGSDFTFLRP [PCDHGC5]; 2.09
LSRTNEELLWKLQTGDPTSPIKLS [MTUS2]; 3.35

Which protein stability index reading was recorded for the sequence VSLHDRIYVIGGYDGRSRLSSVEC [KLHL12] ? 2.19

Which protein stability index reading was recorded for the sequence VLAGAAEEGFMTAELAGVIKRLWK [GNAI1] ? 2.45

Which protein stability index reading was recorded for the sequence AENLDVKINENVAAGMRFPLPEAI [PCDHGA10] ? 4.28

Which protein stability index reading was recorded for the sequence GILRARRGEGIQAPSFSSYLYFLF [SOAT2] ? 2.11

Which protein stability index reading was recorded for the sequence EYQPLQIETYGPHVPELEMLGRLG [MNAT1] ? 3.76

* * *

Measured protein stability index accompanies every entry in the list below.
- assaySummary: protein stability index of a GFP-peptide fusion (GPS, HEK-293T) (PSI 1-6); higher = more stable
- experimentalParameters: treatment: MLN4924 1 uM, 8 h; c terminus: native
Respond with the number and no other words.

Below: 5 sequences and their reported protein stability index.
CPLKNPTFLDYVRPRSWTCRYVF [SOAT1]; 3.06
RLTREVEATRRALIDRMVNLHQA [DDIT3]; 3.83
RRQTSMTDFYHSKRRLIFSKRKP [CDKN1A]; 3.71
MLIEELYAFMPARSQDPKKPSRV [CBY2]; 2.55
GSACSLLCCCGRDPSEEHSLLVN [MCOLN1]; 2.27

Which protein stability index reading was recorded for the sequence WYSRLQACQWGGNFLAFSVRRVS ? 2.15

Which protein stability index reading was recorded for the sequence REEEEQVRAHAPRGNAPPRGKGL [KCNG1] ? 3.68

Which protein stability index reading was recorded for the sequence LKYIGMAKREINKLLKQKEKKNE [ARL6IP1] ? 3.83

Which protein stability index reading was recorded for the sequence WQLYYSKKLLDSWFTSTQEKKHK [JAGN1] ? 2.7

Which protein stability index reading was recorded for the sequence LIPRTMADQQARRQERKPKDRRK [NFE2L1] ? 5.22

Which protein stability index reading was recorded for the sequence GLMSFIGNRNKLGYSLARGSIGF [TPRG1] ? 2.5

Which protein stability index reading was recorded for the sequence YSLRILIGDPPHHDHHDEFCLMP [BEX5] ? 2.03
